Test system: P388 leukemia ip, CD2F1 mice, survival T/C
Test: NCI In Vivo Anticancer Drug Screen. Data for tumor model P388 Leukemia (intraperitoneal) in CD2F1 (CDF1) mice
Conditions: endpoint: median survival time; dose: 200.0 mg/kg/injection; schedule: Q01DX005 (ip); vehicle: saline with Tween-80; higher = longer survival
Toxic doses and inconclusive results are not listed.
In this section we review reported T/C values for a set of compounds.

NCCCCC(C(=O)NC(CCC(=O)OCc1ccccc1)C(=O)Oc1ccc([N+](=O)[O-])cc1)N(C(=O)OCc1ccccc1)C(=O)OCc1ccccc1 (centres undefined); 92 % of control
CC(C)(CCN)c1cc(CC(C)(C)C2(C)OCCO2)no1; 113 % of control
NNC(=O)SCCC(=O)O; 101 % of control
Cc1cc(Br)ccc1N1CSC(=S)N(c2ccc(Br)cc2C)C1; 93 % of control
CC(C)CC(C)C1CCC(C)C1CCC(C)OC=O (centres undefined); 98 % of control
C[C@@H]1C[C@@H]2c3cccc4c3c(cn4C)C[C@H]2N(C)C1; 104 % of control
CCOC(=O)C1C2(C(C)=O)C(C)=Nc3c(C#N)cnn3C12C(=O)OCC (centres undefined); 91 % of control
Brc1ccc(-n2c(-c3ccccc3)cs/c2=N\Nc2nnc(-c3ccccc3)c(-c3ccccc3)n2)cc1; 92 % of control
CCOc1c(N=Nc2cccc(Cl)c2)c(-c2ccccc2)nn1C(N)=S; 96 % of control
CC(C)(C)OC(=O)NC1CN(OCc2ccccc2)C1=O (centres undefined); 89 % of control

Let's switch to this compound now.
Input line: Given the compound CC1(C)OC2OCC(N=[N+]=[N-])C(O)C2O1 (centres undefined) , what is its reported T/C?
Output line: 92 % of control

----------
Each entry below carries its reported T/C.
Test system: P388 leukemia ip, CD2F1 mice, survival T/C
Experiment: NCI In Vivo Anticancer Drug Screen. Data for tumor model P388 Leukemia (intraperitoneal) in CD2F1 (CDF1) mice
Details: endpoint: median survival time; dose: 30.0 mg/kg/injection; schedule: Q01DX005 (ip); vehicle: Klucel (hydroxypropylcellulose) (HPC); higher = longer survival
Procedure: The antitumor activity of compounds was measured in mice bearing transplantable tumors. Survival or tumor size were measured and the results are expressed as the measurement made in the treated group (T) divided by the measurement made in the vehicle treated control group (C). The tumor model used in this assay is P388 Leukemia (intraperitoneal) in CD2F1 (CDF1) mice
Toxic doses and inconclusive results are not listed.

Look over these answered cases.
CC1=C(C)C(=O)C2=C(OCCO2)C1=O; 106 % of control
CC(=O)OC1CC2C(C)(C)OC(=O)C=CC2(C)C2CCC3(C)C(c4ccoc4)C(=O)C4OC43C12C (stereo unspecified); 95 % of control
Cn1cc(N=P(c2ccccc2)(c2ccccc2)c2ccccc2)c(=O)n(C)c1=O; 105 % of control
CCCCN=C1Nc2nc(=NCCCC)nc3c(Br)cc(Br)c(n23)N1; 86 % of control
Cc1nc2c([N+](=O)[O-])cc(Cl)cc2[nH]1; 107 % of control

Input line: Would you kindly share the measured T/C for CCOC(=O)C1=C(C(C)=O)C(c2ccc([N+](=O)[O-])cc2)C(C(C)=O)=C(C(=O)OCC)N1 ?
Output line: 102 % of control
